// data source = PubChem BioAssay (NCATS)

tested on: CP315; assay: qHTS profiling for inhibitors of Plasmodium falciparum proliferation (AID 504749); further: nearly all actives have a fitted effect of over 60% in size; conditions: P. falciparum in erythrocytes, SYBR Green DNA, 72 h; series mostly up to 28.7 µM
Records with an inconclusive call do not appear. Activity calls are given as the source filed them. The call rests on the fitted dose curve; in most records, active means well fitted inhibition curve with a large enough effect; inconclusive means small, poorly fitted or top-dose-only effect; inactive means flat fitted curve, though single readings scatter.
Classes used: True = active, False = inactive

| cpdSmiles | systemTested | assignedLabel |
| --- | --- | --- |
| CS(=O)(=O)CCNCc1ccc(-c2ccc3ncnc(Nc4ccc(OCc5cccc(F)c5)c(Cl)c4)c3c2)o1 | CP315 | False |
| Cc1cn([C@H]2C[C@H](N=[N+]=[N-])[C@@H](CO)O2)c(=O)[nH]c1=O | CP315 | False |
| Cc1cc(C(C)(C)C)c(O)c(C)c1CC1=NCCN1 | CP315 | False |
| Cn1cnc2c1c(=O)[nH]c(=O)n2C | CP315 | False |
| O=C(c1ccc(OCCN2CCCCC2)cc1)c1c(-c2ccc(O)cc2)sc2cc(O)ccc12 | CP315 | True |
| CS(=O)(=O)Nc1ccc([N+](=O)[O-])cc1Oc1ccccc1 | CP315 | False |
| CC12CC3CC(C)(C1)CC(N)(C3)C2 | CP315 | False |
| CC(C)(C)C(=O)Oc1ccc(S(=O)(=O)Nc2ccccc2C(=O)NCC(=O)O)cc1 | CP315 | False |

----------
experiment: qHTS to identify inhibitors of the type 1 interferon - major histocompatibility complex class I in skeletal muscle: primary screen against the NCATS Mechanism Interrogation Plate v5.0 (MIPE) Libary (AID 1347411); conditions: iHSKM cells + IFN-b, HiBiT-tagged MHC-I luminescence, 24 h; series mostly up to 45.8 µM; further: nearly all actives have a fitted effect of over 65% in size
Inconclusive results are not listed. The source made the active and inactive calls. Calls come from the whole dose curve; as a rule, active = well fitted inhibition curve with a large enough effect; inconclusive = small, poorly fitted or top-dose-only effect; inactive = no such curve, though single readings can be large or run the other way.

| molecule | outcome |
| --- | --- |
| CN1CCN(C2=Nc3cc(Cl)ccc3Nc3ccccc32)CC1 | inactive |
| NS(=O)(=O)c1cc2c(cc1Cl)NCNS2(=O)=O | inactive |
| COc1ccccc1OCC(O)CN1CCN(CC(=O)Nc2c(C)cccc2C)CC1 (stereo not drawn) | inactive |

----------
system: GB4; assay: qHTS profiling for inhibitors of Plasmodium falciparum proliferation (AID 504749); further: nearly all actives have a fitted effect of over 60% in size; further: potency means the concentration at half of the fitted maximal effect; settings: P. falciparum in erythrocytes, SYBR Green DNA, 72 h; series mostly up to 28.7 µM
Records with an inconclusive call do not appear. The source made the active and inactive calls. Calls come from the whole dose curve; as a rule, active = well fitted inhibition curve with a large enough effect; inconclusive = small, poorly fitted or top-dose-only effect; inactive = flat fitted curve, though single readings scatter.
quantityKind: Potency

| molecule | systemTested | result |
| --- | --- | --- |
| Cc1ccc(-c2cc(C(F)(F)F)nn2-c2ccc(S(N)(=O)=O)cc2)cc1 | GB4 | 13.5 µM (active) |
| Cn1cnc2c1c(=O)[nH]c(=O)n2C | GB4 | inactive |
| COc1ccc2[nH]cc(CCNC(C)=O)c2c1 | GB4 | inactive |
| CS(=O)(=O)Nc1ccc([N+](=O)[O-])cc1Oc1ccccc1 | GB4 | inactive |
| CC(C)C(=O)Nc1ccc([N+](=O)[O-])c(C(F)(F)F)c1 | GB4 | inactive |
| CS(=O)(=O)CCNCc1ccc(-c2ccc3ncnc(Nc4ccc(OCc5cccc(F)c5)c(Cl)c4)c3c2)o1 | GB4 | inactive |
| CC(=O)OCC(CCn1cnc2cnc(N)nc21)COC(C)=O | GB4 | inactive |
| NC(=O)NO | GB4 | inactive |
| CC[N+](CC)(CC)CCOc1cccc(OCC[N+](CC)(CC)CC)c1OCC[N+](CC)(CC)CC | GB4 | inactive |
| N[C@@H](Cc1c[nH]c2ccc(O)cc12)C(=O)O | GB4 | inactive |
| Clc1ccc2nsnc2c1NC1=NCCN1 | GB4 | inactive |
| Cn1c(=O)c2c(ncn2C)n(C)c1=O | GB4 | inactive |
| CC#C[C@]1(O)CC[C@H]2[C@@H]3CCC4=CC(=O)CCC4=C3[C@@H](c3ccc(N(C)C)cc3)C[C@@]21C | GB4 | 15.1 µM (active) |
| Cn1c(=O)c2[nH]cnc2n(C)c1=O | GB4 | inactive |
| COc1ccc(CCN(C)CCCC(C#N)(c2ccc(OC)c(OC)c2)C(C)C)cc1OC (centres undefined) | GB4 | inactive |
| Cc1cnc(C(=O)NCCc2ccc(S(=O)(=O)NC(=O)NC3CCCCC3)cc2)cn1 | GB4 | inactive |
| CCCCc1oc2ccccc2c1C(=O)c1cc(I)c(OCCN(CC)CC)c(I)c1 | GB4 | 9.53 µM (active) |
| C[C@](N)(Cc1ccc(O)c(O)c1)C(=O)O | GB4 | inactive |
| NC(=O)OCC(COC(N)=O)c1ccccc1 | GB4 | inactive |
| CN1CCN2c3ccccc3Cc3ccccc3C2C1 (centres undefined) | GB4 | inactive |
| NCCS(=O)(=O)O | GB4 | inactive |
| Cc1cn([C@H]2C[C@H](N=[N+]=[N-])[C@@H](CO)O2)c(=O)[nH]c1=O | GB4 | inactive |
| Nc1nnc(-c2cccc(Cl)c2Cl)c(N)n1 | GB4 | inactive |
| CNCCCC12CCC(c3ccccc31)c1ccccc12 | GB4 | 8.49 µM (active) |
